Entry source: the METLIN SMRT retention time set (Domingo-Almenara et al. 2019)

- assay_name: gradient 5% acetonitrile 3 min, to 50% in 2 min, to 85% in 15 min, held 3 min, 100 µL/min
- particulars: column: Zorbax Extend-C18 2.1 x 50 mm; eluents: water / acetonitrile, 0.1% formic acid
endpoint_name: RP-LC retention time (s)

Below, each entry is followed by its recorded RP-LC retention time result.
CCOC(=O)c1oc2ccc(S(=O)(=O)N3CCCC(c4nn[nH]n4)C3)cc2c1C (centres undefined)
822
CCc1ccc(CNC(=O)CN2CCc3ccccc3C2C(=O)N2CCCC2)cc1 (centres undefined)
860
Cc1ccc(CNC(=O)c2nnc(-c3ccc(S(=O)(=O)N(C)C)cc3)o2)o1
826
CCc1noc(NC(C)=O)c1-c1ccc(C)c(S(=O)(=O)Nc2cccc(F)c2)c1
822
COc1ccc(C(CNC(=O)c2cc(=O)c3cc(C)c(C)cc3o2)N(C)C)cc1 (centres undefined)
644
O=c1[nH]c2ccc(NCc3ccc(Cl)c(Cl)c3)cc2[nH]1
707
O=C(CCc1c(-c2ccc(Br)cc2)nc2ccccn12)NCCN1CCCC1
567
CCc1c(C(=O)O)nnn1-c1ccc(C(F)(F)F)cc1
800
CCCn1cc(S(=O)(=O)NCc2cccs2)c2cccnc21
833
CN1CCCC1c1nc(C2CN(C(=O)c3cnccn3)C2)no1 (centres undefined)
546

(I) O=C(NCCn1c(-c2ccccc2)nc2cccnc21)NCc1ccc(F)cc1
(II) Cc1ccccc1CNC(=O)C1(C)Oc2cccnc2N(C(C)C)C1=O (centres undefined)
Which numeric RP-LC retention time is bigger, that of I or that of II ? Answer by stating the label of the chosen item.
II
(II: 978 s, I: 684 s)

* * *

- assay_name: gradient 5% acetonitrile 3 min, to 50% in 2 min, to 85% in 15 min, held 3 min, 100 µL/min
- particulars: column: Zorbax Extend-C18 2.1 x 50 mm; eluents: water / acetonitrile, 0.1% formic acid
endpoint_name: RP-LC retention time (s)

Below are worked cases with known answers.
O=C(c1cccs1)N1CCC(c2noc(-c3ccncc3)n2)C1 (stereo unspecified)
685
Cn1c(=O)c2cc(C(=O)Nc3ccccc3)cnc2n(-c2ccccc2)c1=O
862
Cc1cc2nc(NC3=NCN(CC4CCCO4)CN3)nc(C)c2cc1C (stereo unspecified)
683

(P) O=C(CS(=O)(=O)Cc1ccccc1)Nc1nc(-c2ccccn2)cs1
(Q) COc1ccc2c(c1)CCc1sc(NC(=O)c3ccc(C)cc3)nc1-2
Would you let me know which has the greater RP-LC retention time value, P or Q ? Response format: the label of the selected entry.
Q
(Q: 1150 s, P: 614 s)

* * *

- assay_name: gradient 5% acetonitrile 3 min, to 50% in 2 min, to 85% in 15 min, held 3 min, 100 µL/min
- particulars: column: Zorbax Extend-C18 2.1 x 50 mm; eluents: water / acetonitrile, 0.1% formic acid
endpoint_name: RP-LC retention time (s)

CCNC(=O)C1CCCN(C(=O)Nc2ccc(NC(=O)Nc3ccc(CC)cc3)cc2)C1 (stereo not drawn)
773

(a) O=C(NCc1cccc(C(F)(F)F)c1)c1cnc(-c2ccccc2)nc1-c1ccncc1
(b) CCOc1ccccc1CNC(=O)c1cc(NC(C)=O)cc2nc(C)ccc12
Of the two listed items, a and b , which carries the larger RP-LC retention time figure? Kindly state the label of the option you pick.
a
